testedTarget: T1, HCV Core1-169 (hepatitis C virus (HCV-1), UniProt P26664 1-169)
T1 sequence: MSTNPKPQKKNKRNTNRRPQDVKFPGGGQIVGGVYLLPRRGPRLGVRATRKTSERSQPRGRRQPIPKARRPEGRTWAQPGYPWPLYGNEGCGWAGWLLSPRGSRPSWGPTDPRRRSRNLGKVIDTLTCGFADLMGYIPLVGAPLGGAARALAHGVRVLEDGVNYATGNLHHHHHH
experimentNotes: SPR sandwich, capture mAb C11-14
propertyLabel: expected percent binding (%)
Hi! Could you send only the number? It should be in %, unit omitted.

## Task Param item = HCV 208B-251 (antibody, V domains shown) VH: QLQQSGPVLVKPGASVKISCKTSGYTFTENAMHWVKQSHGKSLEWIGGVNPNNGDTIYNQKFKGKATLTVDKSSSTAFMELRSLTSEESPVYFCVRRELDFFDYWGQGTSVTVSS VL: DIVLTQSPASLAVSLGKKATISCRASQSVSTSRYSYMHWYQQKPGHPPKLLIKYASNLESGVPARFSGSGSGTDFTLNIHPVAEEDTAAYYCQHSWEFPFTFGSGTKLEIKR ; retrieve measured expected percent binding.
## Result 18.2

## Task Param item = HCV 208A-222 (antibody, V domains shown) VH: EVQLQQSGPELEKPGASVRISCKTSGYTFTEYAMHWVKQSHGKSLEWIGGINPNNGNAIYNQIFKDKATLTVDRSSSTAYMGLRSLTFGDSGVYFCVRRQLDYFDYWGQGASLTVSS VL: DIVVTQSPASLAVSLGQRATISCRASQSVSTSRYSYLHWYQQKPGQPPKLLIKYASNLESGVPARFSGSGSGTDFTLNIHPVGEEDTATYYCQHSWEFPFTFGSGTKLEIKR ; retrieve measured expected percent binding.
## Result 15
